Test system: OVCAR-4 ovarian
Assay: NCI-60 one-dose screen, 48 h
Conditions: 10 µM unless noted
This is part of a sample that, as a whole, favours compounds with a hit. Of some 83,000 tested, about 20% had one in any assay. Activity calls are given as the source filed them. Rule for the calls: active = growth percent below 10; inactive = the rest.
Write down one outcome, taken from active, inactive

(Q) Please indicate how the test categorized CC(=O)O[C@H]1C[C@@]2(C)[C@@H](C[C@@H](O)[C@H]3[C@@]4(C)CC[C@H](N5CCCC5)[C@@H](C)[C@@H]4CC[C@@]32C)/C1=C(\CCC=C(C)C)C(=O)O .
(A) inactive

(Q) Please indicate how the test categorized CCc1ccc(Cc2cnc(NC(=O)c3cc(C)oc3C)s2)cc1 .
(A) inactive

(Q) Please indicate how the test categorized O=C1Nc2ccccc2/C1=C/c1cccn1CCCCCCn1c2ccccc2c(=O)c2ccccc21 .
(A) inactive

(Q) Please indicate how the test categorized COc1ccc(C2=NN3C(C2)c2cc(Br)ccc2OC3c2ccncc2)cc1 (centres undefined) .
(A) inactive

(Q) Please indicate how the test categorized CS(=O)(=O)c1cccc(Nc2ncc3cc(-c4ccccc4Cl)ccc3n2)c1 .
(A) inactive

(Q) Please indicate how the test categorized CCN=c1sc2c(n1NC(=O)c1cc3ccc1CCc1ccc(cc1)CC3)C(=O)c1ccccc1C2=O .
(A) active

(Q) Please indicate how the test categorized CC1=C2[C@@H](CC1)[C@]1(C)O[C@@](C(C)C)(C[C@H]1OC(=O)CO)[C@H]2OC(=O)CCCc1ccccc1 .
(A) inactive

(Q) Please indicate how the test categorized O=c1n(C2OC(CO)C(O)C2O)ccc2nccn12 (centres undefined) .
(A) inactive

(Q) Please indicate how the test categorized O=C1C=CC2(O)OC(c3ccccc3)CC(=O)C2=C1O (centres undefined) .
(A) inactive

---

System: HCT-116 colon
Test: NCI-60 one-dose screen, 48 h (100 = growth as untreated, 0 = no growth, -100 = all killed)
Conditions: 10 µM unless noted
The panel holds about 83,000 compounds, 20% with a hit somewhere; the sample as a whole holds those more often.
Hi! Could you tag entries with growth below 80% as condition met, and those at or above as condition not met? Much appreciated.

(Q) Regarding CN1CC(c2ccccc2)C(C(=O)c2ccc(Br)cc2)C12C(=O)Nc1ccccc12 (centres undefined) , kindly confirm whether its growth is beneath 80%.
(A) condition not met

(Q) Regarding c1ccc2c(-c3cnn4cc(-c5ccc(N6CCNCC6)cc5)cnc34)ccnc2c1 , kindly confirm whether its growth is beneath 80%.
(A) condition met

(Q) Regarding CCN(CC)c1ccc(/C=N/NC(=O)c2ccccc2Nc2ccnc(C(F)(F)F)c2)c(O)c1 , kindly confirm whether its growth is beneath 80%.
(A) condition met

(Q) Regarding C=C(C[n+]1ccccc1)[C@@H]1CC[C@]2(C(=O)OC)CC[C@]3(C)[C@H](CC[C@@H]4[C@@]5(C)CCC(=O)C(C)(C)[C@@H]5CC[C@]43C)[C@@H]12 , kindly confirm whether its growth is beneath 80%.
(A) condition not met

(Q) Regarding O=C(Nc1ncc(Cc2ccccc2)s1)c1ccc2c(c1)OCCO2 , kindly confirm whether its growth is beneath 80%.
(A) condition met

(Q) Regarding Cc1c2ccncc2c(C)c2c1c1ccccc1n2CCCCCC(=O)O , kindly confirm whether its growth is beneath 80%.
(A) condition met

(Q) Regarding COc1ccccc1/C=C/C1=C(C)CCC(c2ccccc2OC)C1C (centres undefined) , kindly confirm whether its growth is beneath 80%.
(A) condition met

(Q) Regarding CNC(=O)c1cc(Oc2cccc3nc(NC(=O)Nc4ccc(F)cc4F)ccc23)ccn1 , kindly confirm whether its growth is beneath 80%.
(A) condition met

(Q) Regarding C[C@H]1c2ccccc2CN1CCCOc1cc2c(cc1OCC1CC1)C1(CCCC1)C(N)=N2 , kindly confirm whether its growth is beneath 80%.
(A) condition met
